system: PBMC from healthy HCMV seropositive donors; assay: IFN-γ ELISPOT assay; assay type: cell-based, human; conditions: donor seven; peptide 10 μg/ml
reported metric: ELISPOT Responses (SFC/10^6 PBMC)
Write the value in SFC/10^6 PBMC as a bare number.

1. FETSGGLVVFWQGIKQKSLV (human cytomegalovirus gB CTL epitope peptide) :: 185
2. TAAKAYAVGQFEQPTETPPE (human cytomegalovirus IE2 CTL epitope peptide) :: 326
3. AHELVCSMENTRATKMQVIG :: 231

Alright, here's another sequence for you.
Exercise: Record request: ELISPOT Responses (SFC/10^6 PBMC) value, item VLEETSVML (human cytomegalovirus IE1 CTL epitope peptide)
Solution: 3752

All values here come from patent US7524503B2.
